- PROTOCOL_DETAILS: Enzymatic activity was determined
Consider the following compounds; for each one, report its Ki.
Give bare numbers, in µM.

Look over these answered cases.
Nc1ccc(S(N)(=O)=O)cc1 [SULFANILAMIDE] = 130
Nc1ccc(S(=O)(=O)Nc2nccs2)cc1 [SULFATHIAZOLE] = 14

// Ki value for N=C(N)NS(=O)(=O)c1ccc(N)cc1 [SULFAGUANIDINE] : 69
